Tested on: MRSP (Methicillin-Resistant Staphylococcus pseudintermedius)
protocol summary: MIC against selected strains of MRSP
Format: cell-based
Design: key: MIC in μM (visual, first well with no growth)
details: MRSP strain 72192, Table 6
Method: Peptides according to SEQ ID NOs as listed in Table 1 were prepared by a commercial manufacturer (CS Bio, Menlo Park, Calif.) using solid phase synthesis. Antimicrobial activity was assessed by determining the Minimal Inhibitory Concentration (MIC) against S. aureus and E. coli. Briefly, Microbroth MICs were performed using CLSI methodology (VET01-S2). […] The MIC was determined visually at the first well of no visible growth at the corresponding concentration. […]
Please go through the items and note down their MR 72192.
Give bare numbers.

// worked examples, MR 72192 included
102 (KWCFRACYRGICYRRCRD; Artificial Antimicrobial peptide) [compound 102] = 1.6
109 (KWCFRVCYRRICYRRCRD; Artificial Antimicrobial peptide) [compound 109] = 1.6

Now look at this one.
[in] Consider the substance shown here: 97 (KRCFRVCYRGICYRRCRD; Artificial Antimicrobial peptide) [compound 97] What is its recorded MR 72192?
[out] 3.1

Hey, just so you know, these numbers are from patent US11352396B2.
